# experimental target: Voltage-dependent L-type calcium channel subunit alpha-1C (Mus musculus, UniProt Q01815)
# Sequence (Q01815 whole entry): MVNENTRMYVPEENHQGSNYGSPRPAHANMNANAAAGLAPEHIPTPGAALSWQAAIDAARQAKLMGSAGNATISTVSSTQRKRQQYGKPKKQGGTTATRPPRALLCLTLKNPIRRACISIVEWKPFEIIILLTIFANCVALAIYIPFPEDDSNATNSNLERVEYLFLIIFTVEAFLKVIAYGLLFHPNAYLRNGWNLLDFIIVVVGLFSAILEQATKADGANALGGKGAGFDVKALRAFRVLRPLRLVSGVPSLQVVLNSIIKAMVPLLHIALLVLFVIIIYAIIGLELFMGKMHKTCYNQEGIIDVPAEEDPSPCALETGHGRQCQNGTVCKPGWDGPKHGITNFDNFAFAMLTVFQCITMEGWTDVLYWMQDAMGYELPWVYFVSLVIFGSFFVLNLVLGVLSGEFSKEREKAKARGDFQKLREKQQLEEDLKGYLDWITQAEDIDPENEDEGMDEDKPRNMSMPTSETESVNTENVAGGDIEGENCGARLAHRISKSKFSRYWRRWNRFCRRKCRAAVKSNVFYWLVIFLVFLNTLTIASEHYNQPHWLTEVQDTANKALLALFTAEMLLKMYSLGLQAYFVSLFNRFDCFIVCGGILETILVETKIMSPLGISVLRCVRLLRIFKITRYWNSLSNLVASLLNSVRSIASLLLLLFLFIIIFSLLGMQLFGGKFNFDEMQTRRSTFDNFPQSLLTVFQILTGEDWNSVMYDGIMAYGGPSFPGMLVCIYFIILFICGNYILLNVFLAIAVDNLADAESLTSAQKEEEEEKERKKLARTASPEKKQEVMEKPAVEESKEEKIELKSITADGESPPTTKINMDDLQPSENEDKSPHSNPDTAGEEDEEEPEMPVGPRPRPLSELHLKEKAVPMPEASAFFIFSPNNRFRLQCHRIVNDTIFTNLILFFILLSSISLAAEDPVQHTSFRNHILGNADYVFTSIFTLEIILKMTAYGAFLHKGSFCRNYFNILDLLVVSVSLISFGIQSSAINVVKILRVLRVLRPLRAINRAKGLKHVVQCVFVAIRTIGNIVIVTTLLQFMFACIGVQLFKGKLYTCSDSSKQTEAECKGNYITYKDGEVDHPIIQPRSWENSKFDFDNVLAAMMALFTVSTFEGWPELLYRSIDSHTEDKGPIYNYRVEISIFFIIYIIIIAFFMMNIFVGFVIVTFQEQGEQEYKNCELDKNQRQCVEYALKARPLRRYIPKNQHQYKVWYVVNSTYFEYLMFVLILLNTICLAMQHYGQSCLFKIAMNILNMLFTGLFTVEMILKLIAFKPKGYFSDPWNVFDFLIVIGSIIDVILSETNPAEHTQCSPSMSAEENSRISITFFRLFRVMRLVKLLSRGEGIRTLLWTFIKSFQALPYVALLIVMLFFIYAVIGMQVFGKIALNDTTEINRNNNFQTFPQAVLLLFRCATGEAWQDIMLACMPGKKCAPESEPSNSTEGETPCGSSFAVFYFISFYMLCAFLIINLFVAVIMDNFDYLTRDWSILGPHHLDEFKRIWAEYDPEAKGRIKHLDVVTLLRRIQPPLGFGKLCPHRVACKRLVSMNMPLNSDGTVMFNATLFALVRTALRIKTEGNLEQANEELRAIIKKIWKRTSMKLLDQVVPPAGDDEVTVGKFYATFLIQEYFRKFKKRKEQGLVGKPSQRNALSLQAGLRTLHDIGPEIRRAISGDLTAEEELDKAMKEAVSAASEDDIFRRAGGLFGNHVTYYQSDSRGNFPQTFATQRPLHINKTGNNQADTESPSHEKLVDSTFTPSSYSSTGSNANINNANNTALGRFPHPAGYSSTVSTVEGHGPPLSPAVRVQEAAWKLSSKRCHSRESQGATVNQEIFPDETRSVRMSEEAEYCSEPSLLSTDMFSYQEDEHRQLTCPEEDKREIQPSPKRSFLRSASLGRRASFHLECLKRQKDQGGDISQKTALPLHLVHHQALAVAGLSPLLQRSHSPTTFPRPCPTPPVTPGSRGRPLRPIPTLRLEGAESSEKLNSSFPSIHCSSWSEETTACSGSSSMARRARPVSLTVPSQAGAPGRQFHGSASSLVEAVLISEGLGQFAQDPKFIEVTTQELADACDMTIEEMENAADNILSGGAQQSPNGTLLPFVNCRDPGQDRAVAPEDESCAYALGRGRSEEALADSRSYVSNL
# assay text: Inhibition of Cav1.2 calcium current measured using whole cell patch clamp in mouse ventricular myocytes
# Type: functional, cell-based, Heart, Ventricular myocyte
# Design: ca sol conc 2.5 mM, temp 22-24 C
readout kind: IC50 (µM)
Supply the numeric figure in µM, leaving out any unit text.

What does the record list as IC50 for `CCC(C)(C)C(=O)O[C@H]1C[C@@H](C)C=C2C=C[C@H](C)[C@H](CC[C@@H](O)C[C@@H](O)CC(=O)O)[C@H]21` ? 3.9

----------
# experimental target: Voltage-dependent L-type calcium channel subunit alpha-1C (Rattus norvegicus, UniProt P22002)
# Sequence (P22002 whole entry): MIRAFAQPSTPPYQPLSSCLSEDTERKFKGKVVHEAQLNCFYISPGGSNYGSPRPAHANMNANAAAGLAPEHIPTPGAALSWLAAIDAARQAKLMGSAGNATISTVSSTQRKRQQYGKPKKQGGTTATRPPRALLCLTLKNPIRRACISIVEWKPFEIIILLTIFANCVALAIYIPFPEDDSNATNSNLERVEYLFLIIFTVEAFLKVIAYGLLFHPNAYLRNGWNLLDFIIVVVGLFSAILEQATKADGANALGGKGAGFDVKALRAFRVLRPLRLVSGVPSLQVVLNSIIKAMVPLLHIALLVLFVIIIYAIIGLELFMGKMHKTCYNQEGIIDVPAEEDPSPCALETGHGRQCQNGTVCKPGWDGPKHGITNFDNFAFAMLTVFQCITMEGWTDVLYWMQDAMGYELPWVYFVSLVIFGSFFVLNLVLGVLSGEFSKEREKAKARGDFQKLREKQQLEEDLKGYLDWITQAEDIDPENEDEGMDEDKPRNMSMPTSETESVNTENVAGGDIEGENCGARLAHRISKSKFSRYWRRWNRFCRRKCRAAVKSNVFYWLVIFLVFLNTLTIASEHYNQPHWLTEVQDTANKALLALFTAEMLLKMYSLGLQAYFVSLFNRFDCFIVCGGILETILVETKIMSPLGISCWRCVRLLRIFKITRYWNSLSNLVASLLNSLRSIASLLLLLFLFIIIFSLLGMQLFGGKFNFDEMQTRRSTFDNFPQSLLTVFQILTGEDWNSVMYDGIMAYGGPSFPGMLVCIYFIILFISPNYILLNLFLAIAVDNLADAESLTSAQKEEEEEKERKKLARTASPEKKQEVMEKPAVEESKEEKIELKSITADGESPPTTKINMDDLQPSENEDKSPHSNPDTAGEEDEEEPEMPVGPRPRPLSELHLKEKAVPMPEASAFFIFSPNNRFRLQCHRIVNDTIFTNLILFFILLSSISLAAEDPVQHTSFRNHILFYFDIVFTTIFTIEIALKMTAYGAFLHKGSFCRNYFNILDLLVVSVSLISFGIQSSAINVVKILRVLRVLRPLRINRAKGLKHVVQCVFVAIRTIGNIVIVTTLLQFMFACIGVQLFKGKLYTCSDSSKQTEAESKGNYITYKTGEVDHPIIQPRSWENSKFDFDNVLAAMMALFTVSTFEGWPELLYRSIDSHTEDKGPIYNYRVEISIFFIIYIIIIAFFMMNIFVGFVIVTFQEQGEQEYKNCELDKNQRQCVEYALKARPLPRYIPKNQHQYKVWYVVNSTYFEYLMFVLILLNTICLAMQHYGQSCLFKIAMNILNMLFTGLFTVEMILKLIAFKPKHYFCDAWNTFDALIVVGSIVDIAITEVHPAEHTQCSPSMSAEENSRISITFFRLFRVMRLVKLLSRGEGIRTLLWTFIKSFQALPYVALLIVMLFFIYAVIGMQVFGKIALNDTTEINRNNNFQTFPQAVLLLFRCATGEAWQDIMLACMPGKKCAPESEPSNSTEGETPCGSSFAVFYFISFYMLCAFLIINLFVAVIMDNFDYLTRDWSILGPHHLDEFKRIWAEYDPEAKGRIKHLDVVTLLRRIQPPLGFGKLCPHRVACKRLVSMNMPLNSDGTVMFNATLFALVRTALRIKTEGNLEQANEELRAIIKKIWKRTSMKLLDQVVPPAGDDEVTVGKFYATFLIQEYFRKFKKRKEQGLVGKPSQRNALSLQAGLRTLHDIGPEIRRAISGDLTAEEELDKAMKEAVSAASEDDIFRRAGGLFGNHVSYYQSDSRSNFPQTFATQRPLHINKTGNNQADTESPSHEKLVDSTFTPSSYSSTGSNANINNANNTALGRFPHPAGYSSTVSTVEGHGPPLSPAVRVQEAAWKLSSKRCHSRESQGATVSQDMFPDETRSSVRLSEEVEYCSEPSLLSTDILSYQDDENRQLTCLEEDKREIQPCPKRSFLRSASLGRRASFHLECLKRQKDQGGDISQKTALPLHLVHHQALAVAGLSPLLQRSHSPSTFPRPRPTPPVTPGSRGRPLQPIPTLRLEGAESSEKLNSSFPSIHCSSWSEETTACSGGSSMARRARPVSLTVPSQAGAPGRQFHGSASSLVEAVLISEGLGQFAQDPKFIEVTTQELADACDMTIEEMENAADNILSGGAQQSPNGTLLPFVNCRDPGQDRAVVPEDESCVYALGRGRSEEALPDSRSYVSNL
# assay text: Inhibition of Cav1.2 calcium current measured using whole cell patch clamp in rat myocyte
# Type: functional, Heart, Cardiac Muscle Cell
# Parameters: ca sol conc 1.2 mM, temp 22 C
readout kind: IC50
A bare number is not enough; add the unit after it.

What value of measured IC50 is listed for CCC1=C[C@@H]2CN3CCc4c([nH]c5ccccc45)[C@@](C(=O)OC)(C2)[C@@H]13 [CATHARANTHINE BASE] ? 224 µM
